target: T1, anti-mFc (AMC) Octet biosensor, blank; experiment: BLI Octet, blank AMC sensor, 100 nM mAb, 25C
T1 construct: Sensor without captured protein, used as blank; also called Blank AMC Sensor
Give measured mAb Binding Response (nm) for each item. Keep answers brief.
One number for each entry, in nm.

// below: answered binders
H4H15335P (antibody, human IgG4, V domains shown, H4H prefix: human IgG4 Fc) VH: QVQLVESGGGVVQPGRSLRLSCAASGFTFNNYGIHWVRQAPGKGLEWVAVISYDESNKYYADSVKGRFTISRDNSKNTLYLQMNSLRAEDTAVYYCAKDIRIAARRHYYYYGMDVWGQGTTVTVSS VL: DIQMTQSPSSVSASVGDRVTITCRASQGISRWLAWYQQKPGKAPKLLIYAASSLESGVPARFSGSGSGTDFTLTISSLQPEDFATYYCQQANSFPITFGPGTKVDIK	0.01
H4H15341P (antibody, human IgG4, V domains shown, H4H prefix: human IgG4 Fc) VH: EVQLVESGGGLVQPGGSLRLSCAASGFTFNNHEMNWVRQAPGKGLEWVSYISSSGNTVTYADFLKGRFTISRDNAKNSLFLQMNSLRDEDTAVYYCARDHLSGTSPLSYWGQGTLVTVSS VL: DIQMTQSPSSLSASVGDRVTITCQASQDINNYLNWFQQKPGKAPKLLIFDASNLETGVPSRFSGSGSGTDFTFTISSLQPEDIATYFCQQYENLPYTFGQGTKLEIK	0.03
H4H15314P2 (antibody, human IgG4, V domains shown, H4H prefix: human IgG4 Fc) VH: QVQLVQSGAEVKKPGASVKVSCKASGYTFTSYDINWVRQATGQGLEWMGWMNPNGDNTGYAQKFQGRVTMTGDTSISTAYMELSSLRSEDTAVYYCAREGIWGFDPWGQGTLVTVSS VL: DIQMTQSPSSLSASVGDRVTITCRASQDIRNDLGWYQQKPGKAPKRLIYAASSLQSGVPSRFSGSGSGTEFTLTISSLQPEDFATFYCLQHNTFPRTFGQGTKVEIK	0

Turning now to a further binder:
### Prompt Indicate the recorded mAb Binding Response (nm) value for this binder: H4H15347P (antibody, human IgG4, V domains shown, H4H prefix: human IgG4 Fc) VH: EVQLVESGGGLVQPGGSLRLSCAASGFTFRNYAMNWARQAPGKGLEWVSGITGSGGATYYADSVKGRFTISRENSKNTLFLQMDTLRAEDTAVYYCAKDRRYFPTSGGPQWGQGTLVTVSS VL: DIVMTQSPLSLPVTPGEPASISCRSSRSLLHSSGYNYLDWYLQKPGQSPQLLLYLGSNRASGVPDRFSGSGSGTYFTLKISRVDAEDVGVYYCMQALQTPWTFGQGTKVEIK
### Response 0.03

Values were extracted from patent US20170037124A1.
